Procedure Summary: yeast display, Sf9 membrane polyspecificity reagent, FACS + sequencing; frameworks hold sequencing errors
Quantity Measured: polyreactivity (PSR sort gate)

1) QVQLVESGGGLVQAGGSLRLSSAASRSIFDYYAMGWYRQAPGKEREFVAAISESSDSTYYADSVKGRFTISRDNAKNTVYLQMNSLKPEDTAVYYCAGQRGGPFPRVVDLYDYWGQGTQVTVSS    low polyreactivity
2) QVQLVESGGGLVQAGGSLRLSCAASGSTLVGYVMGWYRQAPGKERELVAAITTVGSTYYADSVKGRFTISRDNAKNTVYLQMNSLKPEDTAVYYCAADRSDLAEEGYAGYDYWGQGTQVTVSS    low polyreactivity
3) QVQLVESGGGLVQAGGSLRLSCAASGSTFFNYAMGWYRQAPGKERELVAAITGSGGRTYYADSVKGRFTISRDNAKNTVYLQMNSLKPEDTAVYYCAASATYDPHDYWGQGTQVTVSS    high polyreactivity
4) QVKLVESGGGLVQAGGSLRLSCAASGRTFYINAMGWYRQAPGKERELVAAISRVGSTNYADSVKGRFTISRDNAKNTVYLQMNSLKPEDTEVYYCAARSRGGRRYYYWGQGSQVTVSS    high polyreactivity
5) QVQLVESGGGLVQAGGSLRLSCAASGSTFAQNTKGWYRQAPGKERELVATISDGGGSTYYADSVKGRFTISRDNAKNTVYLQMNSLKPEDTAVYYCNTDRFWPSDYWGQGTQVTVSS    low polyreactivity
6) QVQLVETGGGLVQAGGSLRLSCAASGRTFWTNAMGWYRQPPGKEREFVAAISWRGASTFYADSVKWRFTISRDNAKNTVYLQMNSLIPEDTAVFYCAAQSRTRSFYGKYDSWGQGNQVTVSS    low polyreactivity

---

Procedure Summary: yeast display, Sf9 membrane polyspecificity reagent, FACS + sequencing; frameworks hold sequencing errors
Quantity Measured: polyreactivity (PSR sort gate)

1) QVQLVESGGGLVQAGGILRLSCAASGFTFSWYAMGWYRQAPGKERELVAAINADGGTTYYADSVKGRFTISRDNAKNTVYLQMNSLKPEDTAVYYCAAELSVDKYDYWGQGTQVTVSS    low polyreactivity
2) QVQLVESGGGLVQAGGNLRLSCAASGRIFSSYAMGWYRQAPGKERELVAAITGTGGTTYYADSVKGRFTISRDNAKYTVYLQMNSLKPEDTAVYYCNAERIYRLSRDSAVQYDYWGQGTQVTVSS    low polyreactivity
3) QVQLVESGGGLVQAGGSLRLSCAASGRTFRPYAMGWYRPAPGKERELVAAISSRGSSTYYADSVKGRFTISRDNAKNTVYLQMNSLKPEDTAVYYCAARSYWGGLRYDYWGQGTQVTVSS    high polyreactivity
4) QVQLVESGGGLVQAGGSLRLSCAASGGIFDSYAMGWYRQAPGKERELVADITWSGGSTYYADSVKGRFTISRDNAKNTVYLQMNSLKPEDTAVYYCAADDGSQYYFDSPHEYDYWGQGTQVTVSS    low polyreactivity
5) QVQLVESGGGLVQAGGSLRLSCAASGRIFLFYAMGWYRPAPGKERELVAAISVRGGSTYYADSVKGRFTISRDNAKNTVYLQMNSLKPEDTAVYYCAAKQKHTQQYGYWGQGTQVTVSS    high polyreactivity
6) QVQLVESGGGLVQAGGSLRLSCAASGGIFDGNAMGWYRQAPGKERELVAAISSGGITKYADSVKGRFTISRDNAKNTVYLQKNSLKPEDTAVYYCAASWYRYRFIRYDYWGQGTQVTVSS    high polyreactivity
7) QVQLVESGGGLVQAGGSLRLSCAASGSIFAQYAMGWYRQAPGKERELVATISSVGSTNYADSVKGRFTISRDNAKNTVYLQMNSLKPEDTAVYYCNAVRSGWGYFYGLNYWGQGTQVTVSS    low polyreactivity
8) QVQLVESGGGLVQAGGSLRLSCAASGSRNAMGWYRQEPGKERQFVAAITWNGGSTYYADSVKGRFTITRDNAKNTVYLQMNSLKPEDTAVYYCAADVVFPFSVGYDYWGQGTQVTVSS    low polyreactivity
9) QVQLVESGGGLVQAGGSLRLSCAASGYIFSHYAMAWYRQAPGKERELVAAISRNGGSTYYADSVKGRFTISRDNAKNTVYLQMNSLKPEDTSVYYCAVGWKYRYGYWGQGTQVTVSS    high polyreactivity

---

Procedure Summary: yeast display, Sf9 membrane polyspecificity reagent, FACS + sequencing; frameworks hold sequencing errors
Quantity Measured: polyreactivity (PSR sort gate)

1) QVQLVESGGGLVQAGGSLRLSCAASGFTFYANAMGWYRQAPGKERELVAAISRGVSTTYADSVKGRFTISRDNAKNTVYLQMNRLKPEDTAVYYCAADGNVIAQGYDYWGQGTQVTVSS    low polyreactivity
2) QVQLVESGGGLVQAGGSLRLSCAPSGSTFFSKTMGWYRQAPWKERELVAAINDSGTSTYYADSVKRRFTISRDNSKKTVYLQMNSLKPEDTAVYYCAAYPSGWYDYWGQGTQVTVSS    low polyreactivity
3) QVQLVESGGGLVQAGGSLRLSCAASGFTFWDYAMGWYRQAPGKESELVAAISDNDGSTDYADYVKGRFTISRDNAKNTVYLPMNSLKPEDTAVYYCNGEIELPSKEGDYWGQGTQVTVSS    low polyreactivity
4) QVQLVESGGGLVQAGGSLRLSCAASGRTFYKNAMGWYRQAPGKERELVARISRGGSTNYADSVKGRFTISRDNAKNTVYLQMYSVKPEESAVYYCATEYGTHGKTYDYWGQGSQVTVSS    high polyreactivity
5) QGQLVESGGGLVQAGGSLRLSCAASGFIFGTYAMGWYRQAPGKERELVAAITGSGGDTYYADSVKGRFTISRDNAKNTVYLQMNSLKPEDTAVYYCAAVRPPTPSRRREDYWGQGTQVTVSS    low polyreactivity
6) QVQLVESGGGLVQAGGSLRLSCAASGRTFSSYAMGWYRQAPGKERELVAAINSGGSTNYADSVKGRFTISRDNAKNTVYLQMNSLKPEDTAVYYCNAVTFWGLGYDYWGQGTQVTVSS    low polyreactivity
7) QVQLVDSGGCLVQAGGSLRLSCAASGFIFNFYAMGWYRQAPRQQREFVAAISTRGGSTYYADSVKGRFTISRDNAKNTVFLQMKSLKPEDTAVYYCAARRFWGSRRLDYWGQCTQVTVSS    high polyreactivity

---

Procedure Summary: yeast display, Sf9 membrane polyspecificity reagent, FACS + sequencing; frameworks hold sequencing errors
Quantity Measured: polyreactivity (PSR sort gate)

1. QVQLVESGGGLVQAGGSLRLSCAASGFTFYRYAMGWYRQAPGKERELVAAINWSGVSTYYADSVKGRFTISRDNAKNTVYLQMNSLKPEDTAVYYCAADTYAGYNGNYWGQGTQVTVSS    high polyreactivity
2. QVQLVESGGGLVQAGGSLRLSCAASGSIFSGYAMGWYRQAPGKERELVAAISTSSVRTYYADSVKGRFTISRDNAKNTVYLQMNSLKPEDTAVYYCAARDGGSYTPMYYWGHGTQVTVSS    high polyreactivity
3. QVQLVESGGGIVQAGGSLRLSCAASGRNFSRYAMGWYRQAPGKERELVAVISRSGADTYYADSVKGRFTISRDNAKNTVYLQMNSLKPEDTAVYYCNAYSARRPHPMGYDYWGEGTQVTVSS    high polyreactivity
4. QVQLVESVGGLVQAGGSLRLSCAASGFIFTLYTMGWYRHAPGKERELVADIDKNGSTYYADSVKGRFTISRDNAKITVYLRMYSLKPEDTAFYYCAADDRYRGNREDYWGQGTQVTVSS    low polyreactivity
5. QVQLVESGGGLVQAGGSLRLSCAASGSILDIYAMGWSRQAPGKERELVAGMSTTGGSTYYADSVKGRFTISRDNAKNTVYLQMNSLKPEDTAVYYCAKDYGYQGHTRTLYWAYLEYDYWGQGTQVTVSS    low polyreactivity
6. QVQLVESGGGLVQAGGSLRLSCAASGFTFYLYAMGWYRPAPGKERELVAAITYSAGSTYYADSVKGRFTISRDNEKNTVYLQMNSLKPEDTAVFSCAKRGHYRAWGGGGYWGQGTQVTVSS    low polyreactivity

---

Procedure Summary: yeast display, Sf9 membrane polyspecificity reagent, FACS + sequencing; frameworks hold sequencing errors
Quantity Measured: polyreactivity (PSR sort gate)

1) QVQLVESGGGLVQAGGSLRLSCAASGFTFTWYAMGWYRQAPGKERELVATISRSGGRTYYADSVKGRFTISRDNAKNTVYLQMNSLKPEDTAVYYCAADTRNYPRYDYWGQGTQVTVSS    high polyreactivity
2) QVQLVESGGGLVQAGGSLSLSCAATGSTFAQNAMGWYRQAPGKERELVAAISRRGGSTYYADSVKGRFTISRDNAKNTVYVQMNSLKPEDTAVYYCAADQPVRQHHRDDYWGQGTQVTVSS    low polyreactivity
3) QLQLVESGGGLVQAGGSLRLSCAASGSIFKPYALRCYIQAPGKERELVAAITRSGGSTYYADSVKGRFTISRDNAKNTVYLQMNSLKPEDTAVYYCAAGNAPYYRFGSKKYGYWGQGTQVTVSS    high polyreactivity
4) QVQLVESGGGLVQAGGSLRLSCAASGFIFTKYTMGWYRQAAGKVRELVAAIDSGGNTYADSVKGRFTISRDNAKNTVYLHMNSLKPEDTAVYYCAVDGGEFSSYGYWGQGTQVTVSS    low polyreactivity
5) QVQLVESGGGLVQAGGSLRLSCAASGFIFSQYAMGWYRQAPGKERELVAAISYRGGSTYYADSVKGRFTISRDNAKNTVYLQMNSLKPEDTAVYYCNAGRRSQTYLGTCDYWGQGTQVTVSS    high polyreactivity
6) QVHLVESGGGLVQAGGSLRLSCADSGSTFKNYAMGWYRPAPGKERELVATITKRGGSTYYADSVKGRFTISRDNAKNTVYLQMKSMKPEDTAVYYCAAAPNGPRYRDRFDYWGQGNQVTVSS    high polyreactivity
7) QVQLVESGGGLVQAGGSLRLSCAASGLTFSDYAMGWYRQAPGKEREFVAAITRNGASTRYADSVKGRFTISRDNAKNTVYLQMNRLKPEDTAVYYCSTDVGFGRKQRPHRPGYGYWGQGTQVTVSS    low polyreactivity
8) QDQLVESGGGLVQAGGSLRLSCAASGYTFDYNAMGWYRQAPGKEREFVAAIDWSGGNTYYADSVKGRFTISRDNAKNTVYLQMNSLKPEDTAVYYCNTVTEAVTRRYDYWGQGTQVTVSS    low polyreactivity
9) QVQLVESGGGLVQAGGSLRLSCSASGSIFPAYAMGWYRQAPGKERELVASITGSGGSTYYADSVKGRFTISRDNAKNTVYLQMNSLKPEDTAVYYCNARYYVYSATVDRYYHFYYCGQGTQVTVSS    high polyreactivity
10) QVQLVESGGRLVQAGGSLRLSCAASGRIFVYNAMRWYRQAPGKERELVASITSSGGSTYYADSVKGRFTISRDNAKNTVYLQMNSLKPEDTAVYYCAADVQPDTRSTPEMDYWGQGTQVTVSS    low polyreactivity
11) QVQLVESGGVLVQAGGSLRLSCAASGRTFYGYSMGWYRQAAGKEREFVSDITYSGGRTYYADSVKGRFTISRDNAKNTVYLQMYSLKPEDTAVYYCNAYYYYVNQGRYEYGYWGQGTQVTVSS    high polyreactivity
12) QVQLVESGGGLVQEGGSLRLSCAASGFIFSSNDMGWYRQPPGKERELVAVISRSGGRTYYADSVKGRFTISRDNAKNTVYLQMNSLKPEDTSVYYCNKKDRLGHSGRDYWGQGTQVTVSS    high polyreactivity
13) QVQLVESRGRLVQAGGSLRLSCAASGFSFVINDMGRYRQAPGKERELVADITSGGDTYYADSVKGRFTISRDNAKNTVYLQKNSLKPEDTAVYYCAADIYRDLIYLLYGYWGQGTQVTVSS    low polyreactivity

The origin of these recorded values is the nanobody polyreactivity screen of Harvey et al. (2022).
